Where these numbers come from: ChEMBL document CHEMBL5058577

# Test system: HEK-293T
# test: Multiplex assay against HEK293T
# Type: toxicity, cell-based
# condition_details: human, 12 h, 10 µM, compound concentration 10 uM, replicate 1
assay_metric: Total Cell Count
Write the number on its own, no unit after it.

The following compounds have reported results that may help.
Cc1nn(C)c2nc(NNC(=O)Nc3cc(Cl)nc(Cl)c3)cc(C(C)C)c12: 300
CCCCC[C@H](O)/C=C/[C@H]1[C@H](O)CC(=O)[C@@H]1CCCCCCC(=O)O [ALPROSTADIL]: 318
CCc1nn2c(C)cc(C)nc2c1Cc1ccc(-c2nnc(C3CCNCC3)o2)cc1: 319
COc1cc(OC2CCN(C(C)=O)CC2)ccc1C(=O)N1CCC(N2C(=O)OCc3ccccc32)CC1: 436

Here is another compound to look at.
Return Total Cell Count for the following compound: O=C(Nc1cc(-c2ccccc2)nn1-c1ccccc1F)c1ccc([N+](=O)[O-])cc1
342

====

Measured Population Pyknosed Nuclei (%), listed per entry.
# System: Fibroblast
# test: Multiplex assay against human fibroblast
# Format: toxicity, cell-based
# condition_details: 24 h, 1 µM, compound concentration 1 uM, replicate 1
Non-standard residues stand in square brackets, D forms with d. Residues, ends and D or L forms follow the SMILES beside them.

CC(C)C[C@H](CO)Nc1nc(S[C@@H](C)c2ccccc2)nc2nc(N)sc12: 14%

Return Population Pyknosed Nuclei (%) for the following compound: COc1ccc2[nH]c(I)c(CCNC(C)=O)c2c1
20%

Return Population Pyknosed Nuclei (%) for the following compound: Cc1cc(=O)n(C)c2cc(N3C(=O)CC[C@H](NS(=O)(=O)CC(C)C)[C@H]3c3ccc(Cl)cc3)ccc12
18%

Return Population Pyknosed Nuclei (%) for the following compound: COc1cc(OC2CCN(C(C)=O)CC2)ccc1C(=O)N1CCC(N2C(=O)OCc3ccccc32)CC1
17%

Return Population Pyknosed Nuclei (%) for the following compound: Cl.Cl.OCCOCCN1CCN(C(c2ccccc2)c2ccc(Cl)cc2)CC1 (stereo not drawn) [HYDROXYZINE HYDROCHLORIDE]
12%

Return Population Pyknosed Nuclei (%) for the following compound: CC(C)C[C@@H]1NC(=O)[C@@H](C(C)C)NC(=O)[C@@H]2CCCN2C(=O)[C@@H](CC(=O)O)NC(=O)[C@@H](Cc2c[nH]c3ccccc23)NC1=O [BQ-123] (cyclo(L[dW][dD]P[dV]))
14%

Return Population Pyknosed Nuclei (%) for the following compound: Cc1nn(C)c2nc(NNC(=O)Nc3cc(Cl)nc(Cl)c3)cc(C(C)C)c12
12%

Return Population Pyknosed Nuclei (%) for the following compound: Nc1nc(-c2ccco2)c2cnn(Cc3ccccc3F)c2n1
7%

====

# Tested on: HEK-293T
# test: Multiplex assay against HEK293T
# Format: toxicity, cell-based
# condition_details: human, 48 h, 1 µM, compound concentration 1 uM, replicate 1
assay_metric: Population Mitochondria Different-Phenotype (%)
Express your answer in %, writing the number without its unit.

CCCCCCNC(=O)Nc1ccc(S(=O)(=O)Nc2ccc(CCNC[C@H](O)COc3ccc(O)cc3)cc2)cc1 [L-755507]: 16
Cl.Cl.OCCOCCN1CCN(C(c2ccccc2)c2ccc(Cl)cc2)CC1 (stereo not drawn) [HYDROXYZINE HYDROCHLORIDE]: 19
COCCCN1CCC(NC(=O)c2cc(Cl)c(N)c3c2OCC3)CC1 [PRUCALOPRIDE]: 16
COC(c1ccccc1)(c1ccccc1)[C@H](Oc1nc(C)cc(C)n1)C(=O)O [AMBRISENTAN]: 22
COc1cc2nc(N3CCN(C(=O)COc4c(OC)cccc4C(C)C)CC3)nc(N)c2cc1OC.Cl.Cl: 18

Return Population Mitochondria Different-Phenotype (%) for the following compound: COc1c(Nc2ccc(S(C)(=O)=O)nc2C)ncnc1OC1CCN(C(=O)OC(C)C)CC1 [ADP-597]
18

Return Population Mitochondria Different-Phenotype (%) for the following compound: COc1ccc2c(c1OCc1ccccc1)C[C@@H](C(=O)O)N(C(=O)C(c1ccccc1)c1ccccc1)C2 [OLODANRIGAN]
15

Return Population Mitochondria Different-Phenotype (%) for the following compound: Cc1cc(-c2ccc3c(c2)CC[C@H]3N2CC3(CCN(C(=O)Cc4cn5cc(C)sc5n4)CC3)C2)ncn1 [PF-5190457]
18

====

Measured Population Apoptotic (%), listed per entry.
# System: U2OS
# test: Multiplex assay against U2OS
# Type: toxicity, cell-based
# condition_details: human, 48 h, 10 µM, compound concentration 10 uM, replicate 1
Express your answer in %, writing the number without its unit.

OCCCNc1cc(-c2ccnc(Nc3cccc(Cl)c3)n2)ccn1: 94
CCCCC[C@H](O)/C=C/[C@H]1[C@H](O)CC(=O)[C@@H]1CCCCCCC(=O)O [ALPROSTADIL]: 88
CC(C)(O)C(=O)N1CCN(c2ccc(C(F)(F)F)c(C3=C(c4c[nH]c5ccccc45)C(=O)NC3=O)c2)CC1: 95
O=c1nc2[nH]c3ccccc3nc-2c(=O)[nH]1 [ALLOXAZINE]: 90

Return Population Apoptotic (%) for the following compound: CN(C)C/C=C/C(=O)Nc1ccc(C(=O)N2CCCC(Nc3ncc(Cl)c(-c4c[nH]c5ccccc45)n3)C2)cc1 (stereo not given)
100

====

# Test system: Fibroblast
# test: Multiplex assay against human fibroblast
# Assay type: toxicity, cell-based
# condition_details: 24 h, 10 µM, compound concentration 10 uM, replicate 1
assay_metric: Population Mitochondria Different-Phenotype (%)
Report the figure along with its unit, number first.

COc1cc(OC2CCN(C(C)=O)CC2)ccc1C(=O)N1CCC(N2C(=O)OCc3ccccc32)CC1: 7%
CN1CCN(c2ccc(Nc3c4ccccc4nc4ccccc34)cc2)CC1.Cl.Cl.O: 66%
Cc1sc2c(c1C)C(c1ccc(Cl)cc1)=N[C@H](CC(=O)OC(C)(C)C)c1nnc(C)n1-2: 19%

Here is another molecule to look at.
Return Population Mitochondria Different-Phenotype (%) for the following molecule: Cc1cc(=O)n(C)c2cc(N3C(=O)CC[C@H](NS(=O)(=O)CC(C)C)[C@H]3c3ccc(Cl)cc3)ccc12
19%

====

# Test system: U2OS
# test: Multiplex assay against U2OS
# Format: toxicity, cell-based
# condition_details: human, 24 h, 10 µM, compound concentration 10 uM, replicate 1
Non-standard residues stand in square brackets, D forms with d. Residues, ends and D or L forms follow the SMILES beside them.
Each entry falls in a class defined on Population Tubulin-Different-Phenotype (%); the bands are range 1 (below 3%), range 2 (3% to below 8%), range 3 (8% or more)

Worked examples, 8 compounds total:
Cc1cc(=O)n(C)c2cc(N3C(=O)CC[C@H](NS(=O)(=O)CC(C)C)[C@H]3c3ccc(Cl)cc3)ccc12: range 3
CN(C)C/C=C/C(=O)Nc1ccc(C(=O)N2CCCC(Nc3ncc(Cl)c(-c4c[nH]c5ccccc45)n3)C2)cc1 (stereo not drawn): range 3
CCn1c(-c2nc3cc(C(=O)N4CCCC(N)C4)ccc3n2C)cc2ccccc21.Cl (stereo not drawn): range 3
CC(C)(C)c1ccc(CSc2cnn(C(C)(C)C)c(=O)c2Cl)cc1 [PYRIDABEN]: range 2
CCC(=O)OCC(=O)[C@@]1(OC(=O)CC)[C@@H](C)C[C@H]2[C@@H]3CCC4=CC(=O)C=C[C@]4(C)[C@@]3(Cl)[C@@H](O)C[C@@]21C [BECLOMETHASONE DIPROPIONATE]: range 3
CC(C)C[C@@H]1NC(=O)[C@@H](C(C)C)NC(=O)[C@@H]2CCCN2C(=O)[C@@H](CC(=O)O)NC(=O)[C@@H](Cc2c[nH]c3ccccc23)NC1=O [BQ-123] (cyclo(L[dW][dD]P[dV])): range 2
COCCn1c(C)c(C)s/c1=N\C(=O)C1C(C)(C)C1(C)C: range 1
COc1cc(OC2CCN(C(C)=O)CC2)ccc1C(=O)N1CCC(N2C(=O)OCc3ccccc32)CC1: range 2

Class? Entry: CN1C[C@H](C(=O)N[C@]2(C)O[C@@]3(O)[C@@H]4CCCN4C(=O)[C@H](Cc4ccccc4)N3C2=O)C[C@@H]2c3cccc4[nH]cc(c34)C[C@H]21.CS(=O)(=O)O [DIHYDROERGOTAMINE MESYLATE]
range 1

Class? Entry: C[C@H](NC(=O)CNC(=O)c1cccc(Cl)c1)c1ccccc1
range 1

Class? Entry: OCCCNc1cc(-c2ccnc(Nc3cccc(Cl)c3)n2)ccn1
range 3

Class? Entry: CN1CCN(c2ccc(Nc3c4ccccc4nc4ccccc34)cc2)CC1.Cl.Cl.O
range 3

Class? Entry: O=c1ccc2ccc(OCCCCN3CCN(c4cccc5sccc45)CC3)cc2[nH]1 [BREXPIPRAZOLE]
range 3

====

# System: U2OS
# test: Multiplex assay against U2OS
# Format: toxicity, cell-based
# condition_details: human, 12 h, 1 µM, compound concentration 1 uM, replicate 1
assay_metric: Population Normal (%)
Express your answer in %, writing the number without its unit.

The following compounds have reported results that may help.
COC(c1ccccc1)(c1ccccc1)[C@H](Oc1nc(C)cc(C)n1)C(=O)O [AMBRISENTAN]: 97
COCCn1c(C)c(C)s/c1=N\C(=O)C1C(C)(C)C1(C)C: 99

Jot down Population Normal (%) (U2OS) of COc1ccc2[nH]c(I)c(CCNC(C)=O)c2c1 [IODOMELATONIN] .
97

Jot down Population Normal (%) (U2OS) of Nc1nc(-c2ccco2)c2cnn(Cc3ccccc3F)c2n1 .
98

Jot down Population Normal (%) (U2OS) of CCc1nn2c(C)cc(C)nc2c1Cc1ccc(-c2nnc(C3CCNCC3)o2)cc1 .
96
